biological target: T1, human PD-1 expressed on the cell surface (human, UniProt Q15116 25-288); experiment: flow cytometry on CD3/CD28 stimulated human T cells (PD1+ CD3+); given as ED50
T1 construct: whole, on cells; PD-1 on CD3/CD28 stimulated human T cells (flow cytometry), on Promega Jurkat effector cells and on human M1 macrophages (functional assays); also called PD1+ positive CD3+ T cell population; PD-1+ T cells
T1 sequence (Q15116 25-288): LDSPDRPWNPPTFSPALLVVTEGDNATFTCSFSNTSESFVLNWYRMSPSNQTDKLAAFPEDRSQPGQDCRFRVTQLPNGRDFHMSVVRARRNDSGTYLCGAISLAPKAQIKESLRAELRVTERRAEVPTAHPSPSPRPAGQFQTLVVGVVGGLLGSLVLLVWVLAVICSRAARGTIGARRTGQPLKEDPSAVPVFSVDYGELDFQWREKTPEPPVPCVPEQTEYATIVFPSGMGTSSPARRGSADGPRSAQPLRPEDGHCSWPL
pEC50: −log10 of the molar value.
Measured Metric: pEC50

binder="HHLD (antibody, human IgG4 S228P, kappa, V domains shown, also called humanized anti-PD1 variant HH heavy chain + LD light chain) VH: QIQLVQSGSELKKPGASVKVSCKASGYTFTHYAMNWVRQAPGQGLEWMGWINTNTGEPTYAQGFTGRFVFSLDTSVSTAYLQISSLKAEDTAVYYCAREREPGMDHWGQGTLVTVSS VL: DVVMTQSPLSLPVTLGQPASISCRSSQSLVHANTNTYLEWYQQRPGQSPRLLIYKVSNRFSGVPDRFSGSGSGTDFTLKISRVEAEDVGVYYCFQGTHVPNTFGQGTKLEIKR" measured_metric=pEC50 endpoint_value=9.88
